Tested on: Pseudomonas aeruginosa ATCC 15442
experimental_details: DGHM suspension test, microbicidal activity
Format: cell-based
condition_context: CU 200 mg/l; contact time 60 mins.
logarithmic reduction factor listing for selected compounds.
Answer using only a numeral; do not append any unit.

These solved cases illustrate the format of a correct answer.
> print(dat)
                                   compound            attribute.measured  recorded.measurement
1  CCCCCCCCCCCC(=O)OCC[N+](C)(C)CCOC(=O)CCCCCCCCCCC.COS(=O)(=O)[O-] [Example 8]  logarithmic reduction factor                  3.77
2  CCCCCCCCCC(=O)OCC[N+](C)(CCOC(=O)CCCCCCCCC)CCOC(=O)CCCCCCCCC.COS(=O)(=O)[O-] [Example 9]  logarithmic reduction factor                  2.94
3  CCCCCCCCCC(=O)OCC[N+](C)(CCO)CCOC(=O)CCCCCCCCC.COS(=O)(=O)[O-] [Example 6]  logarithmic reduction factor                  3.89

Form: Entry = CCCCCCCCCC(=O)OCC[N+](C)(C)CCOC(=O)CCCCCCCCC.COS(=O)(=O)[O-] [Example 10] | System = Pseudomonas aeruginosa ATCC 15442 | logarithmic reduction factor = ____ 5.44

====

System: Pseudomonas aeruginosa ATCC 15442
experimental_details: DGHM suspension test, microbicidal activity
Type: cell-based
condition_context: CU 800 mg/l; contact time 60 mins.
Experimental: The microbicidal activity of the quanterary carboxylic acid alkanolamine ester salts used in accordance with the invention was tested against the following selected test germs: The effectiveness of the compound to be tested was determined by the suspension test in accordance with the guidelines of the Deutsche Gesellschaft for Hygiene and Mikrobiologie (DGHM). […]
attribute_measured: logarithmic reduction factor

> print(dat)
                            smiles.notation  recorded.measurement
1  CCCCCCCCCCCC(=O)OCC[N+](C)(CCO)CCOC(=O)CCCCCCCCCCC.COS(=O)(=O)[O-]                  4.40
2  CCCCCCCC(=O)OCC[N+](C)(CCOC(=O)CCCCCCC)CCOC(=O)CCCCCCC.COS(=O)(=O)[O-]                 >5.59
3  CCCCCCCC(=O)OCC[N+](C)(C)CCOC(=O)CCCCCCC.COS(=O)(=O)[O-]                 >5.56

Reported logarithmic reduction factor for `CCCCCCCCC(=O)OCC[N+](C)(C)CCOC(=O)CCCCCCCC.COS(=O)(=O)[O-]` : what is it? >5.53

Reported logarithmic reduction factor for `CCCCCCCC(=O)OCC[N+](C)(CCO)CCOC(=O)CCCCCCC.COS(=O)(=O)[O-]` : what is it? >5.86

Reported logarithmic reduction factor for `CCCCCCCCCC(=O)OCC[N+](C)(CCO)CCOC(=O)CCCCCCCCC.COS(=O)(=O)[O-]` : what is it? >5.81

====

Test system: Candida albicans ATCC 10231
experimental_details: DGHM suspension test, microbicidal activity
Assay type: cell-based
condition_context: CU 100 mg/l; contact time 30 mins.
logarithmic reduction factor listing for selected compounds.

These solved cases illustrate the format of a correct answer.
> print(dat)
                            smiles.notation            attribute.measured  recorded.measurement
1  CCCCCCCCCC(=O)OCC[N+](C)(CCO)CCOC(=O)CCCCCCCCC.COS(=O)(=O)[O-]  logarithmic reduction factor                  3.75
2  CCCCCCCCCC(=O)OCC[N+](C)(C)CCOC(=O)CCCCCCCCC.COS(=O)(=O)[O-]  logarithmic reduction factor                 >4.89

Reported logarithmic reduction factor for `CCCCCCCC(=O)OCC[N+](C)(CCO)CCOC(=O)CCCCCCC.COS(=O)(=O)[O-]` : what is it? >4.16

Reported logarithmic reduction factor for `CCCCCCCCC(=O)OCC[N+](C)(C)CCOC(=O)CCCCCCCC.COS(=O)(=O)[O-]` : what is it? >4.66

Reported logarithmic reduction factor for `CCCCCCCC(=O)OCC[N+](C)(CCOC(=O)CCCCCCC)CCOC(=O)CCCCCCC.COS(=O)(=O)[O-]` : what is it? >4.82

Reported logarithmic reduction factor for `CCCCCCCC(=O)OCC[N+](C)(C)CCOC(=O)CCCCCCC.COS(=O)(=O)[O-]` : what is it? 0.60
